test: MTT cell viability assay, Hep G2 cells (serum-free DMEM); details: human, Hep G2 cells, Cell viability, taxol 2 nM, 48 hr
assayMetric: viability at 48 h, 2 nM (%)
Field: numeric (%). Do not append units.

Prompt: Given the molecule CC(=O)O[C@H]1C(=O)[C@@]2(C)[C@H]([C@H](OC(=O)c3ccccc3)[C@]3(O)C[C@H](OC(=O)[C@H](O)[C@@H](NC(=O)c4ccccc4)c4ccccc4)C(C)=C1C3(C)C)[C@]1(OC(C)=O)CO[C@@H]1C[C@@H]2O , write its reported viability at 48 h, 2 nM.
Completion: 94.5

###

test: MTT cell viability assay, Hep G2 cells (serum-free DMEM); conditions: human, Hep G2 cells, Cell viability, lovastatin 20 μM, 72 hr
assayMetric: viability at 72 h, 20 μM (%)
Field: numeric (%). Do not append units.

Prompt: Given the compound CC[C@H](C)C(=O)O[C@H]1C[C@@H](C)C=C2C=C[C@H](C)[C@H](CC[C@@H]3C[C@@H](O)CC(=O)O3)[C@H]21 , write its reported viability at 72 h, 20 μM.
Completion: 75.3

Provenance of the data: patent US20020173538A1
